B1: DLC1 (parent)
chain: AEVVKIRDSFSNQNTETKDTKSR

- Variants of: B1
- TEST DESCRIPTION: protein stability index of a GFP-peptide fusion (GPS, HEK-293T) (PSI 1-6); higher = more stable;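 note: lentivirally expressed fusions sorted by FACS into six bins by GFP to DsRed ratio, PSI derived from sequencing read proportions per bin multiplied by bin number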
- PROTOCOL CONDITIONS: c terminus: native
Returns MET if the recorded protein stability index is greater than or equal to 2, and NOT MET otherwise.

IN: Textbook exercise: given the entry AEVVKIRDSFSNQNTHTKDTKSR [E16H] , state whether its protein stability index is greater than or equal to 2.
OUT: MET

IN: Textbook exercise: given the entry AEVVKIRDSFSNQNTERKDTKSR [T17R] , state whether its protein stability index is greater than or equal to 2.
OUT: NOT MET

IN: Textbook exercise: given the entry AEVVKIRDSGSNQNTETKDTKSR [F10G] , state whether its protein stability index is greater than or equal to 2.
OUT: MET

IN: Textbook exercise: given the entry AEVVKIRDSFSIQNTETKDTKSR [N12I] , state whether its protein stability index is greater than or equal to 2.
OUT: MET
